Origin of values: ChEMBL document CHEMBL4330106

- Measurement Protocol: Stability in Sprague-Dawley rat serum assessed as parent compound remaining at 10 ug/ml measured after 60 mins by LC-MS/MS analysis
- Format: ADME, cell-free
- Measurement Setup: read-out: Stability
Square brackets hold non-standard residues; d marks the D form. Peptide text beside a SMILES is read from it. Arg(Me) = CNC(=N)NCCC[C@H](N)C(=O)O; d4Pal = N[C@H](Cc1ccncc1)C(=O)O; azaGly = NNC(=O)O
Exercise: state measured remaining at 1 h, 10 ug/ml for each of the compounds provided.
The response must be a number in % with no trailing unit.

Query: What does the data say about its remaining at 1 h, 10 ug/ml? Entry: CNC(=N)NCCC[C@H](NC(=O)[C@H](CC(C)C)NC(=O)NNC(=O)[C@H](Cc1ccccc1)NC(=O)c1ccccc1)C(=O)N[C@@H](Cc1c[nH]c2ccccc12)C(N)=O
Reply: 95

Query: What does the data say about its remaining at 1 h, 10 ug/ml? Entry: CNC(=N)NCCC[C@H](NC(=O)[C@H](CC(C)C)NC(=O)NNC(=O)[C@H](Cc1ccccc1)NC(=O)[C@H](CO)NC(=O)[C@H](CC(N)=O)NC(=O)[C@@H](Cc1ccncc1)NC(=O)[C@H](N)Cc1ccc(O)cc1)C(=O)N[C@@H](Cc1ccccc1)C(N)=O [KISS1-305] (H-[dY][d4Pal]NSF[azaGly]L[Arg(Me)]F-NH2)
Reply: 89

----------
- Target Entity: KiSS-1 receptor (Homo sapiens)
- Sequence (Q969F8 whole entry): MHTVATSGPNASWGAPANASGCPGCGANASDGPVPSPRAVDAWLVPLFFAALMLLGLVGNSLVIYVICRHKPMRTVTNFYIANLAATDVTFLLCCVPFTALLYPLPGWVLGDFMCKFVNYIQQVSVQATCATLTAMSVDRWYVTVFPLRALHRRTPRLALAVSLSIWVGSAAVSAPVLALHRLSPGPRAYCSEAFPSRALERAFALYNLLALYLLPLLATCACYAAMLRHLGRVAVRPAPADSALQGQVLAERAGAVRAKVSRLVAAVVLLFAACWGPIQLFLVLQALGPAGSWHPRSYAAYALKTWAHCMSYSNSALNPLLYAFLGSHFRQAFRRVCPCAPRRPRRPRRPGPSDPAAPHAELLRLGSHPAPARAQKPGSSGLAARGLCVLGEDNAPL
- Measurement Protocol: Agonist activity at human KISS1R expressed in CHO cells assessed as increase in calcium mobilization measured at 2 secs interval for 2 mins by fluo-4 NW dye based FLIPR assay
- Assay type: functional, cell-based
Square brackets hold non-standard residues; d marks the D form. Peptide text beside a SMILES is read from it. * marks the point of attachment. Propanoyl(3-indol-3-yl) = O=C(CCc1c[nH]c2ccccc12)*; Arg(Me) = CNC(=N)NCCC[C@H](N)C(=O)O; Bz = O=C(c1ccccc1)*; azaGly = NNC(=O)O
Assay Endpoint: pEC50
Friendly reminder that pEC50 comes from taking -log10 of the concentration in mol/L.

Query: What does the data say about its pEC50? Entry: CNC(=N)NCCC[C@H](NC(=O)[C@H](CC(C)C)NC(=O)NNC(=O)[C@H](Cc1ccccc1)NC(C)=O)C(=O)N[C@@H](Cc1ccccc1)C(N)=O (Ac-F[azaGly]L[Arg(Me)]F-NH2)
Reply: 9.48

Query: What does the data say about its pEC50? Entry: CNC(=N)NCCC[C@H](NC(=O)[C@H](CC(C)C)NC(=O)NNC(=O)[C@H](Cc1ccccc1)NC(=O)c1ccccc1)C(=O)N[C@@H](Cc1ccccc1)C(N)=O (Bz-F[azaGly]L[Arg(Me)]F-NH2)
Reply: 9.22

Query: What does the data say about its pEC50? Entry: CNC(=N)NCCC[C@H](NC(=O)[C@H](CC(C)C)NC(=O)NNC(=O)[C@H](Cc1ccccc1)NC(=O)CCc1c[nH]c2ccccc12)C(=O)N[C@@H](Cc1ccccc1)C(N)=O ({Propanoyl(3-indol-3-yl)}-F[azaGly]L[Arg(Me)]F-NH2)
Reply: 9.21

----------
- Target Entity: KiSS-1 receptor (Homo sapiens)
- Measurement Protocol: Agonist activity at human KISS1R expressed in CHO cells assessed as increase in calcium mobilization measured at 2 secs interval for 2 mins by fluo-4 NW dye based FLIPR assay
Assay Endpoint: EC50 (nM)
The response must be a number in nM with no trailing unit.

Query: What does the data say about its EC50? Entry: CNC(=N)NCCC[C@H](NC(=O)[C@H](CC(C)C)NC(=O)NNC(=O)[C@H](Cc1ccccc1)NC(=O)c1ccoc1)C(=O)N[C@@H](Cc1c[nH]c2ccccc12)C(N)=O
Reply: 0.11

Query: What does the data say about its EC50? Entry: CNC(=N)NCCC[C@H](NC(=O)[C@H](CC(C)C)NC(=O)NNC(=O)[C@H](Cc1ccccc1)NC(=O)c1ccccc1)C(=O)N[C@@H](Cc1c[nH]c2ccccc12)C(N)=O
Reply: 0.024

Query: What does the data say about its EC50? Entry: CC(C)C[C@H](NC(=O)CNC(=O)[C@H](Cc1ccccc1)NC(=O)[C@H](CO)NC(=O)[C@H](CC(N)=O)NC(=O)[C@H](Cc1c[nH]c2ccccc12)NC(=O)[C@H](CC(N)=O)NC(=O)[C@@H](N)Cc1ccc(O)cc1)C(=O)N[C@@H](CCCNC(=N)N)C(=O)N[C@@H](Cc1ccccc1)C(N)=O [KISSPEPTIN-10]
Reply: 0.087
